Assay: self-splicing fitness, log relative to wild type (ln ratio); higher = more splicing; Tetrahymena group I intron in knt gene, E. coli kanamycin selection, DiMSum; sequences stand for … in CUCUCU…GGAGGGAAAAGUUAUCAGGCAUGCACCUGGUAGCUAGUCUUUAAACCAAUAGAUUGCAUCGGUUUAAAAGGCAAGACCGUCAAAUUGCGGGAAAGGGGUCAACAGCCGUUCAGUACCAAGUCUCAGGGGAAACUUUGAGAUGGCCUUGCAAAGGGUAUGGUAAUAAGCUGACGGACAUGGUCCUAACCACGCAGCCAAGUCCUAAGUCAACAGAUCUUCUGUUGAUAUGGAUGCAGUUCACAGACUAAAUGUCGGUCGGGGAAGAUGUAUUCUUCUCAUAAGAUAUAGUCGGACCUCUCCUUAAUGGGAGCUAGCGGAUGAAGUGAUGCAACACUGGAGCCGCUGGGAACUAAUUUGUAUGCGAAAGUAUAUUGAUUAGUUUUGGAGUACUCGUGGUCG;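 also: selection with 25 µg/mL kanamycin versus none on LB agar overnight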
Conditions: 30 °C
readout_type: self-splicing fitness (ln)
Keep it simple and answer with nothing but the number.

So, UCUGAGCAAUAUUACGGUUA ? Its self-splicing fitness (ln) was -2.82

So, AGGAAGCAAUAUUACGACAC ? Its self-splicing fitness (ln) was -1.94

So, ACAAAGCAAUAUUACGGCAC ? Its self-splicing fitness (ln) was -1.61

So, CUUUAGCAAUAUUACGUACA ? Its self-splicing fitness (ln) was -2.89

So, GACUAGCAAUAUUACGCUCA ? Its self-splicing fitness (ln) was -0.407

So, CCUUAGCAAUAUUACGUUUA ? Its self-splicing fitness (ln) was -3.23

So, CCCCAGCAAUAUUACGCAUG ? Its self-splicing fitness (ln) was -3.67

So, ACUUAGCAAUAUUACGCCUU ? Its self-splicing fitness (ln) was -0.353

So, AACAAGCAAUAUUACGAUGU ? Its self-splicing fitness (ln) was -1.64

So, GUAAAGCAAUAUUACGGGCU ? Its self-splicing fitness (ln) was -1.69

So, CUAAAGCAAUAUUACGAACG ? Its self-splicing fitness (ln) was 0.195

So, GAAUAGCAAUAUUACGUCUA ? Its self-splicing fitness (ln) was -1.12

So, GCCCAGCAAUAUUACGAUAC ? Its self-splicing fitness (ln) was -2.24

So, GGACAGCAAUAUUACGUCUC ? Its self-splicing fitness (ln) was -4.03

So, GCCCAGCAAUAUUACGCGUU ? Its self-splicing fitness (ln) was 0.0719

So, UUGAAGCAAUAUUACGGAAC ? Its self-splicing fitness (ln) was -3.62

So, UGGCAGCAAUAUUACGUUAU ? Its self-splicing fitness (ln) was -2.25

So, UUCAAGCAAUAUUACGUAGC ? Its self-splicing fitness (ln) was -4.06

So, ACAGAGCAAUAUUACGGUUC ? Its self-splicing fitness (ln) was -3.68

So, CCGUAGCAAUAUUACGUGAU ? Its self-splicing fitness (ln) was -3.04

So, UGAAAGCAAUAUUACGUUCC ? Its self-splicing fitness (ln) was -1.36

So, AAGAAGCAAUAUUACGGCGA ? Its self-splicing fitness (ln) was -0.584

So, AUAUAGCAAUAUUACGCCGC ? Its self-splicing fitness (ln) was -2.58

So, GACGAGCAAUAUUACGGUCA ? Its self-splicing fitness (ln) was -2.22

So, CUACAGCAAUAUUACGUGGU ? Its self-splicing fitness (ln) was -3.31

So, ACUGAGCAAUAUUACGCGGU ? Its self-splicing fitness (ln) was -2.46

So, GAGCAGCAAUAUUACGGACU ? Its self-splicing fitness (ln) was -1.32

So, CGUAAGCAAUAUUACGUUUU ? Its self-splicing fitness (ln) was -4.1

So, GCCCAGCAAUAUUACGGAUA ? Its self-splicing fitness (ln) was -0.88

So, GUUAAGCAAUAUUACGUCGU ? Its self-splicing fitness (ln) was -0.93

So, UUGUAGCAAUAUUACGAGUG ? Its self-splicing fitness (ln) was -1.69

So, UCUGAGCAAUAUUACGCAGU ? Its self-splicing fitness (ln) was -2.4

So, GUUGAGCAAUAUUACGUGCG ? Its self-splicing fitness (ln) was -3.02

So, AGUCAGCAAUAUUACGGGCG ? Its self-splicing fitness (ln) was -0.963

So, AUAUAGCAAUAUUACGCCUA ? Its self-splicing fitness (ln) was -0.306

So, CGAAAGCAAUAUUACGCAUA ? Its self-splicing fitness (ln) was -3.13

So, ACCGAGCAAUAUUACGGCCA ? Its self-splicing fitness (ln) was -0.778

So, CAAUAGCAAUAUUACGUCGU ? Its self-splicing fitness (ln) was -3.95

So, AACAAGCAAUAUUACGGGGU ? Its self-splicing fitness (ln) was -3.36

So, UCAGAGCAAUAUUACGAUUA ? Its self-splicing fitness (ln) was -1.18

So, GGCUAGCAAUAUUACGCUCC ? Its self-splicing fitness (ln) was -2.32

So, CGAUAGCAAUAUUACGGCCA ? Its self-splicing fitness (ln) was -1.22

So, AUCGAGCAAUAUUACGUUCC ? Its self-splicing fitness (ln) was -1.89

So, AAGGAGCAAUAUUACGAUAG ? Its self-splicing fitness (ln) was -4.31

So, ACCCAGCAAUAUUACGCUGG ? Its self-splicing fitness (ln) was -2.83

So, CUUUAGCAAUAUUACGAGAU ? Its self-splicing fitness (ln) was -3.83

So, CGUCAGCAAUAUUACGUAUC ? Its self-splicing fitness (ln) was -3.54

So, AGACAGCAAUAUUACGCCCC ? Its self-splicing fitness (ln) was -0.804

So, AUAUAGCAAUAUUACGCGCA ? Its self-splicing fitness (ln) was -0.342

So, UGUUAGCAAUAUUACGAGAG ? Its self-splicing fitness (ln) was -3.33

So, AGGUAGCAAUAUUACGAACC ? Its self-splicing fitness (ln) was -0.58

So, GUAUAGCAAUAUUACGAAGA ? Its self-splicing fitness (ln) was -3.64

So, AAGAAGCAAUAUUACGUAGA ? Its self-splicing fitness (ln) was -2.64

So, CUGGAGCAAUAUUACGUCAA ? Its self-splicing fitness (ln) was -2.69

So, AUGAAGCAAUAUUACGUAAG ? Its self-splicing fitness (ln) was -1.05

So, GUUUAGCAAUAUUACGGACA ? Its self-splicing fitness (ln) was -1.68

So, CAAAAGCAAUAUUACGCCCA ? Its self-splicing fitness (ln) was -1.69

So, AGGCAGCAAUAUUACGAAGA ? Its self-splicing fitness (ln) was -1.96

So, GUAAAGCAAUAUUACGUCGU ? Its self-splicing fitness (ln) was -0.978

So, GUAAAGCAAUAUUACGGCUG ? Its self-splicing fitness (ln) was 0.0741

So, AUAUAGCAAUAUUACGGUAU ? Its self-splicing fitness (ln) was -3.75

So, CGACAGCAAUAUUACGUAGU ? Its self-splicing fitness (ln) was -3.12

So, CCAGAGCAAUAUUACGGAGC ? Its self-splicing fitness (ln) was -2.89

So, AUCAAGCAAUAUUACGACAU ? Its self-splicing fitness (ln) was 0.105

So, UUUUAGCAAUAUUACGCGUA ? Its self-splicing fitness (ln) was -1.57

So, AGCAAGCAAUAUUACGAGUA ? Its self-splicing fitness (ln) was -1.67

So, AUCCAGCAAUAUUACGUCAU ? Its self-splicing fitness (ln) was -0.725
